Hey, just so you know, these numbers are from patent USRE47302E1.

# target: immunoproteasome subunit LMP7 (Homo sapiens)
# Construct: Lysate from the human acute lymphoblastic leukemia cell line, MOLT-4; endogenous in cells; host or cells: MOLT-4
# assay_text: Proteasome active-site ELISA (ProCISE), LMP7, MOLT-4 lysate
# Format: biochemical
# measurement_setup: MOLT4 lysate, 1 h continuous treatment, 25° C.
measured_parameter: pIC50
// pIC50 is dimensionless: -log10 of concentration (M)

Tell me the measured pIC50 of COc1ccc(C[C@H](NC(=O)[C@H](CC#N)NC(=O)CN2CCOCC2)C(=O)N[C@@H](CC2=CCCC2)C(=O)[C@@]2(C)CO2)cc1 , please.
7.51

Find the recorded pIC50 belonging to COc1ccc([C@@H](O)[C@H](NC(=O)[C@H](C)NC(=O)CN2CCOCC2)C(=O)N[C@@H](CC2=CCCCC2)C(=O)[C@@]2(C)CO2)cc1 and report it.
7.06

Look up pIC50 for this compound: COc1ccc(C[C@H](NC(=O)[C@@H](NC(=O)CN2CCOCC2)C2COC2)C(=O)N[C@@H](CC2=CCCCC2)C(=O)[C@@]2(C)CO2)cc1
7.34

Entry under review: COc1ccc(C[C@H](NC(=O)CNC(=O)CN2CCOCC2)C(=O)N[C@@H](Cc2ccccc2)C(=O)[C@@]2(C)CO2)cc1 . Reported pIC50?
6.68

Entry C[C@H](NC(=O)CN1CCOCC1)C(=O)N[C@@H](Cc1ccc2occc2c1)C(=O)N[C@@H](CC1CCCC1)C(=O)[C@@]1(C)CO1 : reported pIC50 = ?
6.50

Need pIC50, item COc1ccc(C[C@H](NC(=O)[C@@H](C)NC(=O)C2CCOCC2)C(=O)N[C@@H](CC2CCCC2)C(=O)[C@@]2(C)CO2)cc1O
7.15

* * *

Measured pIC50 by item
# target: immunoproteasome subunit LMP7 (Homo sapiens, UniProt P28062)
# Construct: Lysate from the human acute lymphoblastic leukemia cell line, MOLT-4; endogenous in cells; host or cells: MOLT-4
# assay_text: Proteasome active-site ELISA (ProCISE), LMP7, MOLT-4 lysate
# Format: biochemical
# measurement_setup: MOLT4 lysate, 1 h continuous treatment, 25° C.
Scale: negative log10 of molar concentration, which is what pIC50 denotes.

Take a look at these entries with their results.
{"columns": ["chemical_structure", "pIC50"],
 "data": [
  ["COc1ccc(C[C@H](NC(=O)[C@@H](C)NC(=O)[C@H]2CC[C@H](O)CC2)C(=O)N[C@@H](CC2CCC2)C(=O)[C@@]2(C)CO2)cc1", 6.58],
  ["C[C@H](NC(=O)CN1CCOCC1)C(=O)N[C@@H](Cc1ccc(S(C)(=O)=O)cc1)C(=O)N[C@@H](CC1CCCC1)C(=O)[C@@]1(C)CO1", 6.78]
]}

# get_value(readout= pIC50, system= immunoproteasome subunit LMP7 (Homo sapiens, UniProt P28062)) for C[C@H](NC(=O)CN1CCOCC1)C(=O)N[C@@H](Cc1ccc2[nH]ncc2c1)C(=O)N[C@@H](CC1CCCC1)C(=O)[C@@]1(C)CO1
6.68

# get_value(readout= pIC50, system= immunoproteasome subunit LMP7 (Homo sapiens, UniProt P28062)) for COc1ccc(C[C@H](NC(=O)[C@@H](C)NC(=O)C2CCOCC2)C(=O)N[C@@H](CC2CCCC2)C(=O)[C@@]2(C)CO2)cc1
7.28

Hello, I am looking for reported pIC50 with immunoproteasome subunit LMP7 (Homo sapiens, UniProt P28062) for COc1ccc(C[C@H](NC(=O)[C@H](C)NC(=O)CN2CCOCC2)C(=O)N[C@@H](CC2CCCC2)C(=O)[C@@]2(C)CO2)cc1O . Could you help?
6.74

What value of pIC50 on immunoproteasome subunit LMP7 (Homo sapiens, UniProt P28062) does COc1ccc(C[C@H](NC(=O)[C@@H](NC(=O)CN2CCOCC2)[C@H](C)O)C(=O)N[C@@H](Cc2ccccc2)C(=O)[C@@]2(C)CO2)cc1 have?
7.64

* * *

# target: human 20S immunoproteasome (i20S) (Homo sapiens)
# assay_text: 20S proteasome assay, chymotrypsin-like activity (succinyl-Leu-Leu-Val-Tyr-AMC), i20S
# Type: biochemical
# measurement_setup: LLVY substrate, 1 h continuous
Mark 1 (yes) only for IC50 values smaller than 100 nM; exact matches and larger values are 0 (no).

{"columns": ["chemical_structure", "target", "qualitative_label"],
 "data": [
  ["C[C@H](NC(=O)CN1CCOCC1)C(=O)N[C@@H](Cc1ccc(C(N)=O)cc1)C(=O)N[C@@H](CC1CCCC1)C(=O)[C@@]1(C)CO1", "human 20S immunoproteasome (i20S) (Homo sapiens)", "1 (yes)"],
  ["COc1ccc(C[C@H](NC(=O)[C@H](C)NC(=O)CN2CCOCC2)C(=O)N[C@@H](C[C@H]2CCC(F)(F)C2)C(=O)[C@@]2(C)CO2)cc1", "human 20S immunoproteasome (i20S) (Homo sapiens)", "0 (no)"],
  ["C[C@H](NC(=O)CN1CCOCC1)C(=O)N[C@@H](Cc1ccc2occc2c1)C(=O)N[C@@H](CC1CCCC1)C(=O)[C@@]1(C)CO1", "human 20S immunoproteasome (i20S) (Homo sapiens)", "0 (no)"],
  ["COc1ccc(C[C@H](NC(=O)CNC(=O)CN2CCOCC2)C(=O)N[C@@H](Cc2ccccc2)C(=O)[C@@]2(C)CO2)cc1", "human 20S immunoproteasome (i20S) (Homo sapiens)", "0 (no)"],
  ["COc1ccc([C@@H](O)[C@H](NC(=O)[C@H](C)NC(=O)CN2CCOCC2)C(=O)N[C@@H](CC2CCCC2)C(=O)[C@@]2(C)CO2)cc1", "human 20S immunoproteasome (i20S) (Homo sapiens)", "0 (no)"]
]}

Kindly consider the entry below.
Given C[C@@H](NC(=O)C1CCOCC1)C(=O)N[C@@H](Cc1ccc(S(C)(=O)=O)cc1)C(=O)N[C@@H](CC1CCCC1)C(=O)[C@@]1(C)CO1 , is recorded IC50 strictly lower than 100 nM?
1 (yes)

* * *

# target: human 20S immunoproteasome (i20S) (Homo sapiens)
# assay_text: 20S proteasome assay, chymotrypsin-like activity (succinyl-Leu-Leu-Val-Tyr-AMC), i20S
# Assay type: biochemical
# measurement_setup: read-out: LLVY i20S Hu 1 h CONT: IC50, LLVY substrate, 1 h continuous
# Source text: Assay buffer consisted of TE buffer [20 mmol/L Tris (pH 8.0), 0.5 mmol/L EDTA] with (20S) or without (cell lysate) 0.03% SDS. Reactions were initiated by enzyme or lysate addition and monitored for AMC product formation at 27jC with a plate-based spectofluorometer (Tecan).
List of pIC50 values.
The meaning of pIC50 here: minus log10 of the concentration in molar units.

{"columns": ["compound", "pIC50"],
 "data": [
  ["COC[C@H](NC(=O)CN1CCOCC1)C(=O)N[C@@H](Cc1ccc(OC)cc1)C(=O)N[C@@H](Cc1ccccc1)C(=O)[C@@]1(C)CO1 [Compound C-1220]", 7.96],
  ["COc1ccc(C[C@H](NC(=O)[C@@H](NC(=O)CN2CCOCC2)C2(O)CC2)C(=O)N[C@@H](Cc2ccccc2)C(=O)[C@@]2(C)CO2)cc1 [Compound C-1184]", 7.98],
  ["C[C@H](NC(=O)CN1CCOCC1)C(=O)N[C@@H](Cc1ccncc1)C(=O)N[C@@H](Cc1ccccc1)C(=O)[C@@]1(C)CO1 [Compound C-1171]", 7.20],
  ["C[C@H](NC(=O)CN1CCOCC1)C(=O)N[C@@H](CC1=CCCCC1)C(=O)N[C@@H](Cc1ccccc1)C(=O)[C@@]1(C)CO1 [Compound C-1227]", 6.19],
  ["C[C@H](NC(=O)CN1CCOCC1)C(=O)N[C@@H](Cc1cccnc1)C(=O)N[C@@H](Cc1ccccc1)C(=O)[C@@]1(C)CO1 [Compound C-1175]", 6.89],
  ["C=CC(=O)NC[C@H](NC(=O)[C@H](C)NC(=O)CN1CCOCC1)C(=O)N[C@@H](Cc1ccccc1)C(=O)[C@@]1(C)CO1 [Compound C-1225]", 7.73],
  ["COC[C@H](NC(=O)[C@H](C)NC(=O)CN1CCOCC1)C(=O)N[C@@H](Cc1ccccc1)C(=O)[C@@]1(C)CO1 [Compound C-1234]", 5.82],
  ["C[C@H](NC(=O)CN1CCOCC1)C(=O)N[C@@H](CC1CCCCC1)C(=O)N[C@@H](Cc1ccccc1)C(=O)[C@@]1(C)CO1 [Compound C-1235]", 6.41],
  ["C[C@H](NC(=O)CN1CCOCC1)C(=O)N[C@@H](Cc1ccccn1)C(=O)N[C@@H](Cc1ccccc1)C(=O)[C@@]1(C)CO1 [Compound C-1155]", 6.60],
  ["COc1ccc(C[C@H](NC(=O)[C@@H](NC(=O)CN2CCOCC2)[C@@H](C)O)C(=O)N[C@@H](Cc2ccccc2)C(=O)[C@@]2(C)CO2)cc1 [Compound C-1173]", 7.47]
]}

# next compound below
Query (compound): COc1ccc(C[C@H](NC(=O)[C@H](C)NC(=O)CN2CCOCC2)C(=O)N[C@@H](Cc2ccc(C)cc2)C(=O)[C@@]2(C)CO2)cc1 [Compound C-1181] ; field requested: pIC50
7.87
